Test system: MS2 coat protein
method.description: apparent KD of MS2 coat protein; designed switch direction (-1 OFF switch, 1 ON switch): 1; higher = weaker reporter binding
test.context: Eterna round: R95; input ligand: microRNA oligo, concentration not stated
experimental.endpoint: apparent KD of MS2 coat protein (µM)
One number for each entry, in µM.

Some solved entries appear below for comparison.
{"columns": ["biopolymer.sequence", "unit.of.measurement", "apparent KD of MS2 coat protein"],
 "data": [
  ["GGAGCCGGCACCGAGGAUAUUCAUAUUAAAACAUGAGGAUCACCCAUGUAGCUCGAAAGAGCUUGGGAGAAGGCGGAUCGGCUCG [Xeonanis - 29] (puzzle: Same State 2)", "µM", 1.01],
  ["UUAUAACAUGAGGAUCACCCAUGUCAACAAAGUCGAGGAUAUGGGCAGAGAGGAGAAGAACCAGAAGGCGAAUAUU [Mat - Same State 1 - Mod of UCT - D38] (puzzle: Same State 1)", "µM", 0.0984],
  ["AAGAAGACGAACAAGGAUAUGUCAAAGGAAACAUGAGGAUCACCCAUGUAGAGAUUGGAAAAGAAACAGAAGGUGUACAGAAAGA [JR_SS2_Sub005] (puzzle: Same State 2)", "µM", 0.0333],
  ["AGCUAUCGCGUACGAUAGCUGAAGCAUGUACAUGAGGAUCACCCAUGUCAUGUACAGGCUUUUUGCUCGUCUUAUUG [JL-shm-2.27 JL mod] (puzzle: Sensor for hsa-mir-208a)", "µM", 0.0164]
]}

Provide the reported apparent KD of MS2 coat protein of each entry below, same order.
1. GGUCCGGCCUGAGCUGGACCGAGGCAUGUACAUGAGGAUCACCCAUGUUCAUGUGCAGGCUUUUUGCUCGUCUUGUG [JL-shm-2.06 JL mod] (puzzle: Sensor for hsa-mir-208a)
2. AUCCUACAUGAGGAUCACCCAUGUGACGCCUCAAUAGGAUAUGCGUGUGCCUUGGCGCAUGCAGAAGGAUUGGAGC [JL Aveso mod 4] (puzzle: Same State 1)

Key:
1. 0.011
2. 0.318

Hello, I would appreciate it if you could give apparent KD of MS2 coat protein for each entry below.
1. AGUCCAGCCUGAGCUGGACAAAAGCAUGUACAUGAGGAUCACCCAUGUCAUGUACAAGCUUUUUGCUCAUCUUAAAA [Mat - hsa-mir-208a - Mod of JL - D11] (puzzle: Sensor for hsa-mir-208a)
2. GUGUUACAUGAGGAUCACCCAUGUUGUUUUAGAUAAGGAUAUAUGGUAACGAGAGAAAUAAUAGAAGGUAUUAGGC [JR_SS1_Sub062] (puzzle: Same State 1)
3. AUCCUACAUGAGGAUCACCCAUGUGACGCCUCGAUAGGAUAUGCGUGUGCCUUGGCGCAUGCAGAAGGAUUGUAGC [JL Aveso mod 6] (puzzle: Same State 1)
4. AGAAGACAUGAGGAUCACCCAUGUCCCUCAUGCGUAGGAUAUAUAAGAAGAAAGAAAAGGAUAGAAGGACGAAAAG [Default title] (puzzle: Same State 1)
5. UUAUAACAUGAGGAUCACCCAUGUCAACAAAGUCGAGGAUAUGGGCAAGAAUUGAGAGAACCAGAAGGCGAAUAUU [Mat - Same State 1 - Mod of UCT - D31] (puzzle: Same State 1)
6. AGUCCAGCCUGAGCUGGACAAAGGCAUGUACAUGAGGAUCACCCAUGUUCAUGUACAAGCUUUUUGCUCGUCUUAAA [Zipper 52 - 1] (puzzle: Sensor for hsa-mir-208a)
7. UCUUGGUUUUUGCUCGUUUUUUGUGUUGAACAUGAGGAUCACCCAUGUAUUGUACGGUCCAAUUUAAUAAUGGUCCA [JMF 37] (puzzle: Sensor for hsa-mir-208a)
8. UGCAUACAUGAGGAUCACCCAUGUCAACUUAGUCGAGGAUAUGGGCAGCCGUGAGGCGAACCAGAAGGCGAAUUGU [JL-ss1-3.02 ViennaUCT mod] (puzzle: Same State 1)

Key:
[0.0164, 0.0299, 0.0305, 0.119, 0.131, 0.0115, 0.0157, 0.0438]

---

Tested on: MS2 coat protein
method.description: apparent KD of MS2 coat protein; higher = weaker reporter binding
test.context: Eterna round: R101; input ligand: none
experimental.endpoint: apparent KD of MS2 coat protein
Please append the unit to your numeric answer.

Sample answers from the record:
{"columns": ["biopolymer.sequence", "assayed.system", "reported.value"],
 "data": [
  ["AAUAAAAUUCUAGGAUAUGACUCCGAAACGGAGUCAGAAGGAGGAUCACCCUUUCAAAGCUCAGCGUCGAAAGACGCUGAGCAA [#SharedSequence - ExNG1-19] (puzzle (switch architecture): Exclusion NG 1)", "MS2 coat protein", "0.155 µM"],
  ["UCAUUUAUCACAGGAUAUAUUAGUAUACAGUUGUUUGGUUAUUACAUAUUAAUAGAAGGGUGAAACAUGAGGAUCACCCAUGUA [S-loop S-stateNG1 03] (puzzle (switch architecture): Small Loop Same State NG 1)", "MS2 coat protein", "0.367 µM"],
  ["GGGUACAUCGGAGGAUAUCAUGUAAAUACAUGAGGAUCACCCAUGUCGAUGGAGACAUCGGAGAUUGAGAAGGCCGAUGUACCG (puzzle (switch architecture): Same State NG 2)", "MS2 coat protein", "0.159 µM"]
]}

Okay, here is my list. What is apparent KD of MS2 coat protein for each of these?
1. AAAGAUUUUUAAGGAUAUCAGUGGCAAAGCCACUGAGAAGGUGAGGAUCACCCACCUACGUGACGCUGGAAACAGCGUCACGAA [#SharedSequence ExNG1 - 25] (puzzle (switch architecture): Exclusion NG 1)
2. UAAAUAAAUCCUAGAGGAUCACCCUAGGAUAUCACCGUCGAGGUGCCAUAAUGGCACCUCGACGGUGAGAAGGAGGAAAAUAAA [#SharedSequence - SLExNG3: 4] (puzzle (switch architecture): Small Loop Exclusion NG 3)
3. GGUCGUCACAUUAACAUGAGGAUCACCCAUGUCAAAAGACAUGAGGAUAUGCAUCCUAAUUGGAUGCAGAAGGCAUGGACGACC (puzzle (switch architecture): Same State NG 3)
4. UCUUAAUUGUAGAAGGGUGACAUGAGGAUCACCCAUGUGCACGCGCGAUUUACGGCGCGCGUGCCACAGGAUAUACAGUUGGGU [Erinquve] (puzzle (switch architecture): Inverted Same State NG 2)
5. GGGUACAUCGGAGGAUAUCAUGUAAAUACAUGAGGAUCACCCAUGUCGAUGGAGACAUGGGAGAUUGAGAAGGCCGAUGUACCG (puzzle (switch architecture): Same State NG 2)
6. GGAGAAACAUGAGGAUCACCCAUGUAGGAUAUCGGGCCCGGGCCCGGCGAAAGCCGGGCCCGGGACGAGAAGGGCGUAAACACC [#LOL] (puzzle (switch architecture): Small Loop Exclusion NG 3)

Key:
0.013 µM
0.00646 µM
0.216 µM
0.0411 µM
0.0225 µM
0.00874 µM

---

Test system: MS2 coat protein
method.description: apparent KD of MS2 coat protein; designed switch direction (-1 OFF switch, 1 ON switch): 1; higher = weaker reporter binding
test.context: input ligand: none
Classes are defined on apparent KD of MS2 coat protein with ranges range 1 (below 80 nM), range 2 (80 nM to below 200 nM), range 3 (200 nM or more)

{"columns": ["biopolymer.sequence", "category"],
 "data": [
  ["GCUACCAUUGAAGCCAACAUGAGGAUCACCCAUGUAUGUUGGUAGGAUAUCGAUUGCAAAGCGAUCGAGAAGGGCUAAGGUAGC [Mat - Same State NG 3 - JL Mod - D81] (Eterna round: R96, puzzle: Same State NG 3)", "range 1"],
  ["CCAUAGUACAAUUUAGAUCUACAUGAGGAUCACCCAUGUACUGAGGAUAUCAGCUCGAUUAGAGCUGAGAAGGCAGAAUUAAUU [SSNG3/5-A2] (Eterna round: R96, puzzle: Same State NG 3)", "range 2"]
]}

Exercise: Please report the category associated with AGCCGAGACACAGGAUAUAGAUGUUUACAUGAGGAUCACCCAUGUAGCAACACGUGGUAGUGAUUCUAGAAGGGUGCUCGGCGC [Omei SS(NG)2 Cv11] (Eterna round: R96, puzzle: Same State NG 2) , nothing else.
Key: range 2

Exercise: Exam item: assign GAUUAACAUGAGGAUCACCCAUGUCGUUUAAUGGGAGGAUAUACGUGGACCGUAGUCCGCGUAGAAGGCCUAAUUG [JL-ss1-3.22 janelle mod] (Eterna round: R96, puzzle: Same State 1) to the correct category.
Key: range 1

Exercise: Would you mind sorting UAACAGUACAAUUUAGAUCUACAUGAGGAUCACCCAUGUACUGAGGAUAUCAGCUCGAUUAGAGCUGAGAAGGCAGAAGAACUA [SSNG3/11-A2] (Eterna round: R96, puzzle: Same State NG 3) into the appropriate category?
Key: range 3

Exercise: Which bin should I file GUUACAUGAGGAUCACCCAUGUAUGUGUGGGAGUAAGUGUCUUAGGAUAUCUAUGAUUUAAUCUAAGAGAAGGAAGAUUGUUGU [JMF's solution 82] (Eterna round: R96, puzzle: Same State NG 3) under?
Key: range 2

Exercise: Band of GCUCGAAUCAGAACCAACAUGAGGAUCACCCAUGUAUGUUGGUAGGAUAUCGUUUCUAAGAGAAACGAGAAGGGCCGAACGAGC [SameState NG3 #5] (Eterna round: R96, puzzle: Same State NG 3) ?
Key: range 3

Exercise: Given CCGAAAGGAGUAGGAUAUGUAGGAUAUUCCUACAUGAGGAUCACCCAUGUUCGCAUGGAAGAAGGACAGAAGGACACGGAAACG [pwkr ssNG2 2FMN + 1F5.14] (Eterna round: R96, puzzle: Same State NG 2) , name the class its apparent KD of MS2 coat protein places it in.
Key: range 1

Exercise: Textbook exercise: identify the category of the sequence given here, GUGGUCAGACAUGAGGAUCACCCAUGUGGAAUAAAUAAGGCAUAGGAUAUAAAAUAUAGGAUAUAUUAGAAGGAUGGGUUGGUG (Eterna round: R96, puzzle: Same State NG 3) , according to its measured value.
Key: range 2
